Reference source for all entries: patent US8304238B2

- Test system: alveolar type II epithelial cells (T2 cells)
- ASSAY EXPLANATION: Inhibition of T2 cell adhesion by free peptide different from the immobilized peptide substrate
- Assay type: cell-based
- CONDITION: AG73 (etc.) immobilized
Where no end group is shown, it is not given here.
PROPERTY NAME: Inhibition by free peptide of T2 cell adhesion to immobilized AG73

>>> print(df.to_string())
   query_sequence                     target_or_test_system              value
0    VKTEYIKRKAFM  alveolar type II epithelial cells (T2 cells)  cannot inhibit it
1    LQQRRSVLRTKI  alveolar type II epithelial cells (T2 cells)  cannot inhibit it

----------
- Test system: alveolar type II epithelial cells (T2 cells)
- ASSAY EXPLANATION: Binding strength (affinity) of immobilized LN peptides to T2 cells relative to immobilized FIB-1 (mixed immobilization, free FIB-1 competition)
- Type: cell-based
- CONDITION: inverse of mixing ratio at transitional midpoint; FIB-1 0.25 mg/ml, MMAC-coated well
- Protocol: Therefore, the amount of FIB-1 peptide was set at 0.25 mg/ml, and AG73 peptide was mixed therewith, while changing its concentration ratio, from 1/1.250 of FIB-1 in an amount which is 0.20 μg/ml, to ½ of FIB-1 in an amount which is 0.125 mg/ml, and the mixture was immobilized on a well wherein a hydrophobic binding-adsorptive polymer MMAC was coated. […]
Where no end group is shown, it is not given here.
Give Binding strength to T2 cells, Ratio to FIB-1 for every item shown.
Returns: the value as a bare number; no unit string appended.

For the sequence `RKRLQVQLSIRT` , the measured Binding strength to T2 cells, Ratio to FIB-1 on alveolar type II epithelial cells (T2 cells) was 100

For the sequence `KPRLQFSLDIQT` , the measured Binding strength to T2 cells, Ratio to FIB-1 on alveolar type II epithelial cells (T2 cells) was 10

For the sequence `TLFLAHGRLVFM` , the measured Binding strength to T2 cells, Ratio to FIB-1 on alveolar type II epithelial cells (T2 cells) was 10

For the sequence `KNSFMALYLSKG` , the measured Binding strength to T2 cells, Ratio to FIB-1 on alveolar type II epithelial cells (T2 cells) was 2

----------
- Test system: alveolar type II epithelial cells (T2 cells)
- ASSAY EXPLANATION: Binding strength (affinity) of immobilized LN peptides to T2 cells relative to immobilized FIB-1 (mixed immobilization, free FIB-1 competition)
- Assay type: cell-based
- CONDITION: inverse of mixing ratio at transitional midpoint; FIB-1 0.25 mg/ml, MMAC-coated well
Where no end group is shown, it is not given here.
PROPERTY NAME: Binding strength to T2 cells, Ratio to FIB-1

>>> df
                      query_sequence  value
0                       GPLPSYLQFVGI     <1
1                       GNSTISIRAPVY    1-2
2                       VKTEYIKRKAFM     <1
3  YAVTGRGDSPAS [reference compound]    (1)
